Consider the following binders; for each one, report its Kd.
Molecular target: T1, Human BCMA-Avi-His (human, UniProt Q02223 2-54)
T1 chain: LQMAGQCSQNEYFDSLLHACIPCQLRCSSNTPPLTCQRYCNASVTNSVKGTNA
Assay: SPR
Report as a plain number; the unit nM is understood.

[in] Requested field: Kd. Item: CA10 Variant 1 (antibody, V domains shown) VH: QVQLVESGGGVVQPGRSLRLSCAASGFTFSNFGMHWVRQAPGRGLEWVAVIWSDETNRYYADSVKGRFTVSRDNVKSTVYLQMNSLISEDTAVYYCARDQQYCSSDSCFTWFDPWGQGTLVTVSS VL: QTVVTQEPSLTVSPGGTVTLTCRSSTGTVTPSNYANWVQQKPDHFFTGLIGDNNSRPPGVPARFSASLIGDKAALTLSGVQPEDEAEYYCALWFGNQWVFGGGTKLTVL
[out] 0.0573

[in] Try CA10 Variant 2 (antibody, V domains shown) VH: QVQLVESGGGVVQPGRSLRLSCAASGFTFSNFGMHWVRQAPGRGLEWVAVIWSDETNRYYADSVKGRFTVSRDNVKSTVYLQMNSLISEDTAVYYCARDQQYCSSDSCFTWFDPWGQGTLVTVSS VL: QTVVTQEPSLTVSPGGTVTLTCASSTGTVTPSNYANWVQQKPGQAPRGLIGDNNSRPPGTPARFSASLLGGKAALTLSGVQPEDEAEYYCALWFGNQWVFGGGTKLTVL next.
[out] 0.0666

[in] Try CA10 Variant 3 (antibody, V domains shown) VH: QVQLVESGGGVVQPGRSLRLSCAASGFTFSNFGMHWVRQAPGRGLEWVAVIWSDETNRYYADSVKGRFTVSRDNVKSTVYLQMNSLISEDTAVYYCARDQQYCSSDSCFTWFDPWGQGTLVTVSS VL: QTVVTQEPSLTVSPGGTVTLTCASSTGAVTPSNYANWVQQKPGQAPRGLIGDNNIKPPWTPARFSGSLLGGKAALTLSGVQPEDEAEYYCALWYGGQWVFGGGTKLTVL next.
[out] 0.182

[in] Try CA10_parental (antibody, V domains shown) VH: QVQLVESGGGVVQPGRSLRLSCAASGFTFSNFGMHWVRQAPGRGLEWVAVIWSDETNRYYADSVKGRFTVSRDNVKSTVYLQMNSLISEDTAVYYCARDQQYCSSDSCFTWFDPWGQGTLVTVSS VL: QVVVTQESALTTSPGETVTLTCRSSTGTVTPSNYANWVQEKPDHFFTGLIGDNNSRPPGVPARFSASLIGDKAALTITGAQTEDEAMYFCALWFGNQWVFGGGTKVTVL next.
[out] 0.0694

[in] Try CA10 Variant 4 (antibody, V domains shown) VH: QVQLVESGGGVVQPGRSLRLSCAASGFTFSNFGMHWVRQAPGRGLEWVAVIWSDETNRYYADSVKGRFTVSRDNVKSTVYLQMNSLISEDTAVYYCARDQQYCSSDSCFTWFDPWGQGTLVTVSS VL: QTVVTQEPSLTVSPGGTVTLTCASSTGAVTPGYYANWVQQKPGQAPRGLIGDNNNKPPWTPARFSGSLLGGKAALTLSGVQPEDEAEYYCALYYGGQWVFGGGTKLTVL next.
[out] 2.57

[in] Try CA10 Variant 6 (antibody, V domains shown) VH: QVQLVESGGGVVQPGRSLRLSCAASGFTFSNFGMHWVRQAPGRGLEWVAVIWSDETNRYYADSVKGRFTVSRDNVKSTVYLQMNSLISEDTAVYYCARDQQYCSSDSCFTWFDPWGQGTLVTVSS VL: QTVVTQEPSLTVSPGGTVTLTCASSTGTVTPSNYANWVQQKPGQFPRGLIGDNNSRPPGTPARFSASLLGGKAALTLSGVQPEDEAEYYCALWFGNQWVFGGGTKLTVL next.
[out] 0.075
